SYSTEM: D(3) dopamine receptor (Homo sapiens)
Sequence (P35462 whole entry): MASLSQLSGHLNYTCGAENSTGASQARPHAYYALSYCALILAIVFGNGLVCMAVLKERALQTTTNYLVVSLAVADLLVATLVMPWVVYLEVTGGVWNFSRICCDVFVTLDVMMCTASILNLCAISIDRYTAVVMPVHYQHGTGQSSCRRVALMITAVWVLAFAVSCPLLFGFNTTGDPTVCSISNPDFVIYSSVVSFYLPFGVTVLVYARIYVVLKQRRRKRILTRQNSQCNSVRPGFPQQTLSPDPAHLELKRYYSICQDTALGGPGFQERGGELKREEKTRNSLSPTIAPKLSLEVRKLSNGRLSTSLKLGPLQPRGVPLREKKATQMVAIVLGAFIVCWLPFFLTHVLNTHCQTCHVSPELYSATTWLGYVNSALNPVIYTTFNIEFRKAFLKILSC
CONDITION DESCRIPTION: cho
pKi: −log10 of the molar value.

COMPOUND	pKi
COc1c(C(=O)N[C@@H]2CCN(Cc3ccccc3)C2)cc(C#Cc2ccccc2)c2ccccc12 (stereo in doubt)	6.00

###

SYSTEM: D(4) dopamine receptor (Homo sapiens)
Sequence (P21917 whole entry): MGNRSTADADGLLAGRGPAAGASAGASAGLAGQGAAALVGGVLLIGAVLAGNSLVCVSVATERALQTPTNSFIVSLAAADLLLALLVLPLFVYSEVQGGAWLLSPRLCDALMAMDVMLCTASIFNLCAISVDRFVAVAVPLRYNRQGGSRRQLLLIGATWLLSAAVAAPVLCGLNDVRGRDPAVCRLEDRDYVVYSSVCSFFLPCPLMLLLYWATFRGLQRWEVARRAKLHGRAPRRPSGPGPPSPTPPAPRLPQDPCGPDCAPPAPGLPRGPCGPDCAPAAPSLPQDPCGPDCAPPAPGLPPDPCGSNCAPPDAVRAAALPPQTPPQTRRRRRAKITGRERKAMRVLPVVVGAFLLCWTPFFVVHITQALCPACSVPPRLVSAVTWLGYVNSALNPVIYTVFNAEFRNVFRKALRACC
pKi: −log10 of the molar value.
REPORTED PROPERTY: pKi

COMPOUND	MEASURED NUMBER
CNc1cc(OC)c(C(=O)N[C@H]2CCCN(Cc3ccccc3)C2)cc1Cl (stereo in doubt)	7.19
C#Cc1cc(C(=O)N[C@@H]2CCN(Cc3ccccc3)C2)c(OC)c2ccccc12 (stereo in doubt; 3i)	8.60
COc1c(C(=O)N[C@H]2CN(Cc3ccccc3)C[C@@H]2C)cc(Br)c2ccccc12 (stereo in doubt; 3d)	7.77
CNc1cc(OC)c(C(=O)N[C@H]2CN(Cc3ccccc3)C[C@@H]2C)cc1Cl (stereo in doubt; 3c)	9.11
COc1cc(N)c(Cl)cc1C(=O)N[C@H]1CCN(Cc2ccccc2)C[C@@H]1C (stereo in doubt)	8.13
COc1c(C(=O)N[C@H]2CN(Cc3ccccc3)C[C@H]2C)cc(Br)c2ccccc12 (stereo in doubt; 3f)	8.57
C#Cc1cc(C(=O)N[C@@H]2CCN(Cc3ccccc3)C2)c(OC)c2ccccc12 (stereo in doubt)	8.15
COc1c(C(=O)NC[C@@H]2CCN(Cc3ccccc3)C2)cc(Br)c2ccccc12 (stereo in doubt)	7.11
CNc1cc(OC)c(C(=O)N[C@H]2CCN(Cc3ccccc3)C[C@@H]2C)cc1Cl (stereo in doubt)	8.80
